Biological target: GCGR extracellular domain (human, UniProt P47871)
Sequence (P47871 26-477): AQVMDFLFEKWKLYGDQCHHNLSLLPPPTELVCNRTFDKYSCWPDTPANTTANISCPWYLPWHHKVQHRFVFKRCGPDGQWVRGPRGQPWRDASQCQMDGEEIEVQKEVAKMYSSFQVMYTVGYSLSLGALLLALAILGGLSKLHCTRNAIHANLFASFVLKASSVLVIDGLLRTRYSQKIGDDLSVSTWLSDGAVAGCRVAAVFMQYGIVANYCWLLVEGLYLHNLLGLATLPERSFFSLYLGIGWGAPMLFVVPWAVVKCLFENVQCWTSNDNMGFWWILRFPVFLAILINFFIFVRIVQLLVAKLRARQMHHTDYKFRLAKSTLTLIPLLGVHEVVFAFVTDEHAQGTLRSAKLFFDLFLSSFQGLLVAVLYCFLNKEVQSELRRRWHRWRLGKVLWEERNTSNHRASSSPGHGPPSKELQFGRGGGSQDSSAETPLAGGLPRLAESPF
Assay: SPR
Endpoint label: pKd
Remember the convention: pKd equals -log10 of concentration in molar.

VL Y94L (antibody, V domains shown) VH: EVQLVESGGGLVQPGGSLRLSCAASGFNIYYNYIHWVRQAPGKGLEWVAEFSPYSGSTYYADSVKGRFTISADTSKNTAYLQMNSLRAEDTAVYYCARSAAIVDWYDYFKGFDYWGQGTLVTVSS VL: DIQMTQSPSSLSASVGDRVTITCRASQSVSSAVAWYQQKPGKAPKLLIYSASSLYSGVPSRFSGSRSGTDFTLTISSLQPEDFATYYCQQYGSLLYTFGQGTKVEIK ... 8.69
VL Y91A (antibody, V domains shown) VH: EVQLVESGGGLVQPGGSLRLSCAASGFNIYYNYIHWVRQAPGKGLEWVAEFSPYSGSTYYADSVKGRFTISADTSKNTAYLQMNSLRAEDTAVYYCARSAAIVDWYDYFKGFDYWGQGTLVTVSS VL: DIQMTQSPSSLSASVGDRVTITCRASQSVSSAVAWYQQKPGKAPKLLIYSASSLYSGVPSRFSGSRSGTDFTLTISSLQPEDFATYYCQQAGSYLYTFGQGTKVEIK ... 7.01
VH Y30Q (antibody, V domains shown) VH: EVQLVESGGGLVQPGGSLRLSCAASGFNIQYNYIHWVRQAPGKGLEWVAEFSPYSGSTYYADSVKGRFTISADTSKNTAYLQMNSLRAEDTAVYYCARSAAIVDWYDYFKGFDYWGQGTLVTVSS VL: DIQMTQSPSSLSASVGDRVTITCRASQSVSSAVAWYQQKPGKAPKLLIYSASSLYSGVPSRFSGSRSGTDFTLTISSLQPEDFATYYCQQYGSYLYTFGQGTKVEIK ... 7.63
VL S93H (antibody, V domains shown) VH: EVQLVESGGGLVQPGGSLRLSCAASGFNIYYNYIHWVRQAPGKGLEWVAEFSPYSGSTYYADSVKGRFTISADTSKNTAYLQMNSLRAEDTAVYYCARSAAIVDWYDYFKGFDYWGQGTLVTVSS VL: DIQMTQSPSSLSASVGDRVTITCRASQSVSSAVAWYQQKPGKAPKLLIYSASSLYSGVPSRFSGSRSGTDFTLTISSLQPEDFATYYCQQYGHYLYTFGQGTKVEIK ... 8.62

API: the following record is the query input.
Sure, the documented pKd for VL Y91D (antibody, V domains shown) VH: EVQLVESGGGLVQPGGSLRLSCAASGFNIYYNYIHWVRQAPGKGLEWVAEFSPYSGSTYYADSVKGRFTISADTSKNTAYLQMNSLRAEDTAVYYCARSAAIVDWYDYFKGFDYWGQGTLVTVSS VL: DIQMTQSPSSLSASVGDRVTITCRASQSVSSAVAWYQQKPGKAPKLLIYSASSLYSGVPSRFSGSRSGTDFTLTISSLQPEDFATYYCQQDGSYLYTFGQGTKVEIK is 8.15
